measurementTarget: human P2X7 receptor (Homo sapiens, UniProt Q99572, R270H/Y155H)
assay: Evaluation of human P2X7 receptor inhibitory activity (Yo-Pro uptake, BzATP stimulation, FLIPR TETRA)
Type: cell-based
measurementContext: antagonistic activity for the human P2X7 receptor; read-out: IC50
Experimental: Stably expressing cell line (1321N1 cell transfected with the human P2X7 receptor gene (GenBank accession number NM_002562.5 including T606C and G952A SNP)) was used. […] Measurement of fluorescence intensity by FLIPR TETRA was started. […] Changing values of fluorescence intensity by the compound of the present invention were calculated by difference between maximum and minimum fluorescence intensity for 20 minutes. Inhibition ratios (%) were calculated from the following equation: […]
measurementKind: IC50

# input compound: `C=C(C)c1ccc(C)c(Nc2nc(=O)c(OC)cn2Cc2cc(F)cc(F)c2)c1` ; wanted: its IC50 10 to 100 nM

Dear colleague, I am looking for the recorded IC50 of the following compound: `Cc1c(Nc2nc(=O)c(F)cn2Cc2cc(F)c(F)c(F)c2)ccc2scnc12` < 10 nM

Which IC50 value is on record for `COc1cn(Cc2ccc(F)c(Cl)c2)c(Nc2ccccc2Cc2ccccn2)nc1=O` ? < 10 nM

Recorded IC50 for `COc1cn(Cc2cc(F)cc(Cl)c2)c(Nc2cc(OC(F)F)c(C)cc2C)nc1=O` , please? 10 to 100 nM

Form field: reported IC50 of `COc1cn(Cc2cc(F)c(F)c(F)c2)c(Nc2cc(OCC(F)(F)F)ccc2C)nc1=O` 10 to 100 nM

If you can, please state the reported IC50 value of `COc1cn(Cc2ccc(F)c(F)c2)c(Nc2cc(S(C)(=O)=O)cc(C)c2C)nc1=O` . 10 to 100 nM

Which IC50 value belongs to `COc1ccc(Nc2nc(=O)cnn2Cc2ccc(F)cc2)c(C)c1` ? < 10 nM

# lookup: IC50 of `COc1cn(Cc2ccccc2)c(Nc2cc(C)c(OCC(F)(F)F)cc2C)nc1=O` 10 to 100 nM

// lookup IC50 for `COc1ccc(Nc2nc(=O)cnn2Cc2ccc(F)c(Cl)c2)c(C)c1` < 10 nM

Given the entry `CCOc1cc(C)c(Nc2nc(=O)c(F)cn2Cc2cc(F)c(F)c(F)c2)cc1C` , report its measured IC50. < 10 nM

So what's the measured IC50 for this one? `COc1ccc(Nc2nc(=O)c(F)cn2Cc2ccc(F)c(Cl)c2)c(C)c1` < 10 nM

Fill blank: measured IC50 of the compound `COc1cn(Cc2cc(F)cc(F)c2)c(Nc2cc(C)cc3[nH]ccc23)nc1=O` is ____. 10 to 100 nM

Requested read-out: IC50. Entry: `CCc1cc(F)c(OC)cc1Nc1nc(=O)c(OC)cn1Cc1ccc(F)c(Cl)c1` < 10 nM

# input compound: `Cc1nc2cc(C)c(Nc3nc(=O)c(F)cn3Cc3cc(F)c(F)c(F)c3)cc2o1` ; wanted: its IC50 < 10 nM

Recorded IC50 of `COc1cn(Cc2cc(F)cc(Cl)c2)c(Nc2cc(-c3ccnn3C)ccc2C)nc1=O` , please. 10 to 100 nM

I'd like to know its IC50. The compound in question is COc1cn(Cc2ccccc2)c(Nc2cccc(C)c2F)nc1=O [Compound I-0762] 100 to 500 nM

Item `COc1cn(Cc2ccc(F)c(Cl)c2)c(Nc2cc3c(cc2C)COC3)nc1=O` has what recorded IC50? 10 to 100 nM

---

measurementTarget: human P2X7 receptor (Homo sapiens, UniProt Q99572, R270H/Y155H)
assay: Evaluation of human P2X7 receptor inhibitory activity (Yo-Pro uptake, BzATP stimulation, FLIPR TETRA)
Type: cell-based
measurementContext: 1321N1 cells stably expressing human P2X7 receptor; BzATP stimulation, Yo-Pro uptake; read-out: IC50 (antagonistic activity for the human P2X7 receptor)
measurementKind: log10(IC50) (log10 of the value in µM)
Quick note: numbers are log10 of IC50, with µM as the unit.

Item: COc1cn(Cc2ccccc2C)c(Nc2cccc(C(F)(F)F)c2Cl)nc1=O [Compound I-0014] Test system: human P2X7 receptor (Homo sapiens, UniProt Q99572, R270H/Y155H) Read-out: log10(IC50) Value: ? -0.60

Please state recorded log10(IC50) (tested on human P2X7 receptor (Homo sapiens, UniProt Q99572, R270H/Y155H)) of COc1cn(Cc2cc(F)cc(F)c2)c(Nc2c(C)ccc(C)c2F)nc1=O [Compound I-0928] -2.00

Can you look up log10(IC50) on human P2X7 receptor (Homo sapiens, UniProt Q99572, R270H/Y155H) for COc1cn(Cc2ccccc2C(F)(F)F)c(Nc2cccc(Cl)c2C)nc1=O [Compound I-0294] ? -0.60

Any idea what log10(IC50) came out for CCc1ccccc1CNc1nc(=O)c(OC)cn1Cc1ccc(F)c(Cl)c1 [Compound I-0453] on human P2X7 receptor (Homo sapiens, UniProt Q99572, R270H/Y155H)? -1.14

Find the measured log10(IC50): item COc1cc(C)c(Nc2nc(=O)cnn2Cc2cc(F)c(F)c(F)c2)cc1OC [Compound I-1281] , target or system human P2X7 receptor (Homo sapiens, UniProt Q99572, R270H/Y155H). -2.40

Hello, I am looking for reported log10(IC50) with human P2X7 receptor (Homo sapiens, UniProt Q99572, R270H/Y155H) for COc1cn(Cc2cc(F)cc(F)c2)c(Nc2cc(C)c(F)cc2C)nc1=O [Compound I-0437] . Could you help? -2.10

Item COc1cn(Cc2ccc(C(F)(F)F)cc2)c(Nc2cccc(Cl)c2C)nc1=O [Compound I-0297] with human P2X7 receptor (Homo sapiens, UniProt Q99572, R270H/Y155H) - log10(IC50)? -0.60

State its log10(IC50) on human P2X7 receptor (Homo sapiens, UniProt Q99572, R270H/Y155H): COc1cn(Cc2ccc(F)c(F)c2)c(Nc2cccc(OC(F)F)c2C)nc1=O [Compound I-0480] -2.40

API: value(readout=log10(IC50), system=human P2X7 receptor (Homo sapiens, UniProt Q99572, R270H/Y155H)) for record CCc1cc2c(cc1Nc1nc(=O)c(OC)cn1Cc1ccc(Cl)cc1)CCC2 [Compound I-0195] -1.59

Fill in the recorded log10(IC50) for this molecule, with human P2X7 receptor (Homo sapiens, UniProt Q99572, R270H/Y155H) as test system: Cc1c(Cl)cccc1Nc1nc(=O)c(O)cn1Cc1ccccc1 [Compound I-0203] -1.74

Checklist item: log10(IC50) tested on human P2X7 receptor (Homo sapiens, UniProt Q99572, R270H/Y155H), entry COc1cn(Cc2ccc(F)c(Cl)c2)c(Oc2cc3sc(C)nc3cc2C)cc1=O [Compound I-0966] , value? -0.32

Observed log10(IC50) on human P2X7 receptor (Homo sapiens, UniProt Q99572, R270H/Y155H) for COc1ccc(Nc2nc(=O)c(F)cn2Cc2ccc(F)c(Cl)c2)c(C)n1 [Compound I-1059] , please. -1.96

Report log10(IC50) for CCOc1cc(Nc2nc(=O)c(OC)cn2Cc2ccc(F)c(Cl)c2)c(C)cc1C [Compound I-0792] tested on human P2X7 receptor (Homo sapiens, UniProt Q99572, R270H/Y155H). -2.05

Request: log10(IC50), test system human P2X7 receptor (Homo sapiens, UniProt Q99572, R270H/Y155H), entry COc1ccc(C)c(Nc2nc(=O)c(OC)cn2Cc2ccc(F)c(F)c2)c1 [Compound I-0407] -2.22

Field: log10(IC50) (human P2X7 receptor (Homo sapiens, UniProt Q99572, R270H/Y155H)). Entry: O=C1CCCc2c(Nc3nc(=O)c(F)cn3Cc3cc(F)c(F)c(F)c3)cccc21 [Compound I-1108] -2.40

Missing value: log10(IC50), human P2X7 receptor (Homo sapiens, UniProt Q99572, R270H/Y155H), entry COc1ccc(Nc2nc(=O)c(F)cn2Cc2cc(F)c(F)c(F)c2)c(C)c1 [Compound I-1040] . Fill in? -2.22

GET /values?readout=log10(IC50)&system=human P2X7 receptor (Homo sapiens, UniProt Q99572, R270H/Y155H)&item= COc1ccc(Nc2nc(=O)c(F)cn2Cc2cc(F)cc(F)c2)c(C)c1F [Compound I-1297] -1.80

---

Assignment: determine reported pIC50 for the given compounds.
measurementTarget: human P2X7 receptor (Homo sapiens, UniProt Q99572, R270H/Y155H)
assay: Evaluation of human P2X7 receptor inhibitory activity (Yo-Pro uptake, BzATP stimulation, FLIPR TETRA)
Assay type: cell-based
measurementContext: antagonistic activity for the human P2X7 receptor; read-out: IC50
pIC50: −log10 of the molar value.

Name the recorded pIC50 for COc1cn(Cc2cc(F)cc(F)c2)c(Nc2cc(N3CCCC3)ccc2C)nc1=O [Compound I-0885] . 7.00 to 8.00

Value lookup for pIC50; key = COc1ccc(Nc2nc(=O)c(F)cn2Cc2ccc(F)c(F)c2)c(C)n1 [Compound I-1049] 7.00 to 8.00

Fill blank: measured pIC50 of the compound COc1cc(C)c(Nc2nc(=O)c(OC)cn2Cc2ccccc2)cc1F [Compound I-0718] is ____. 7.00 to 8.00

Please look up its pIC50: CCOc1ccc(Nc2nc(=O)c(OC)cn2Cc2cccc(Cl)c2)c(C)c1 [Compound I-0677] 7.00 to 8.00

pIC50 lookup needed for COc1cn(Cc2ccc(F)c(F)c2)c(Nc2cc(-c3ncco3)ccc2C)nc1=O [Compound I-0604] , thanks. > 8.00

Requested field: pIC50. Item: COc1cn(Cc2cc(F)cc(F)c2)c(Nc2cc3[nH]ccc3cc2C)nc1=O [Compound I-0620] > 8.00

Which measured pIC50 value corresponds to CCOc1cc(C)c(Nc2nc(=O)c(OC)cn2Cc2cc(F)c(F)c(F)c2)cc1C [Compound I-0624] ? > 8.00

Entry CCc1cc(F)c(OC)cc1Nc1nc(=O)c(F)cn1Cc1cc(F)c(F)c(F)c1 [Compound I-1211] has what pIC50? > 8.00

# input compound: Cc1ccc(F)cc1Nc1nc(=O)c(CO)nn1Cc1cc(F)c(F)c(F)c1 [Compound I-1253] ; wanted: its pIC50 7.00 to 8.00

For Cc1cc2[nH]ccc2cc1Nc1nc(=O)c(F)cn1Cc1cc(F)cc(F)c1 [Compound I-1044] , what is its reported pIC50? > 8.00

For CCOc1ccc(Nc2nc(=O)c(OC)cn2Cc2ccc(F)c(F)c2)c(C)c1 [Compound I-0678] , what is its reported pIC50? > 8.00

Given the compound O=c1nc(Nc2cccc3[nH]ccc23)n(Cc2ccc(F)c(Cl)c2)cc1F [Compound I-1024] , what is its reported pIC50? > 8.00

What value of pIC50 has been recorded for this entry: Cn1ccc2c(Nc3nc(=O)c(F)cn3Cc3cc(F)cc(F)c3)cccc21 [Compound I-1021] > 8.00

Record request: pIC50 value, item Cc1cc(OC(F)F)ccc1Nc1nc(=O)c(F)cn1Cc1ccc(F)c(F)c1 [Compound I-1065] 7.00 to 8.00

Name the reported pIC50 value associated with the compound COc1ccc(Nc2nc(=O)c(OC)cn2Cc2cc(F)c(F)c(F)c2)c(Cl)c1 [Compound I-0847] > 8.00

Query: pIC50; subject: Cc1nc2cc(C)c(Nc3nc(=O)c(Cl)cn3Cc3ccc(F)c(Cl)c3)cc2s1 [Compound I-0787] > 8.00

Find the recorded pIC50 belonging to COc1cc(Nc2nc(=O)cnn2Cc2cc(F)c(F)c(F)c2)c(C)cc1Cl [Compound I-1279] and report it. > 8.00
